Tested on: Escherichia coli TOP10
Test summary: shrunken log2 fold change of peptide-encoding DNA abundance (4.5 h post-induction vs induction); higher = less antimicrobial activity (less host growth inhibition)
Test conditions: time post-induction: 4.5 h; library: site-saturation at positions 5, 18, 19, 20
Below: a set of entries, each annotated with reported shrunken log2 fold change.
Quantity measured: shrunken log2 fold change

item_sequence=RRIRTRPPRLPRPRPRPKHIPRP value_reported=-0.823
item_sequence=RRIRPRPPRLPRPRPRPQGYPRP value_reported=-0.0854
item_sequence=RRIRMRPPRLPRPRPRPVQVPRP value_reported=-0.00884
item_sequence=RRIRWRPPRLPRPRPRPPWYPRP value_reported=-0.0946
item_sequence=RRIRTRPPRLPRPRPRPFMRPRP value_reported=-0.0135
item_sequence=RRIRARPPRLPRPRPRPHWIPRP value_reported=-0.277
item_sequence=RRIRHRPPRLPRPRPRPMESPRP value_reported=0.00489
item_sequence=RRIRQRPPRLPRPRPRPNTPPRP value_reported=-0.0687
item_sequence=RRIRCRPPRLPRPRPRPFHWPRP value_reported=-0.195
item_sequence=RRIRKRPPRLPRPRPRPCKDPRP value_reported=0.0741
item_sequence=RRIRHRPPRLPRPRPRPQQNPRP value_reported=-0.0705
item_sequence=RRIRMRPPRLPRPRPRPTVNPRP value_reported=0.177
item_sequence=RRIRYRPPRLPRPRPRPSIFPRP value_reported=-0.654
item_sequence=RRIRYRPPRLPRPRPRPEHFPRP value_reported=-0.0545
item_sequence=RRIRSRPPRLPRPRPRPTWPPRP value_reported=0.41
item_sequence=RRIRDRPPRLPRPRPRPHMAPRP value_reported=-0.232
item_sequence=RRIRRRPPRLPRPRPRPYECPRP value_reported=-0.0148
item_sequence=RRIRLRPPRLPRPRPRPKLWPRP value_reported=0.296
item_sequence=RRIRFRPPRLPRPRPRPECHPRP value_reported=0.0585
item_sequence=RRIRTRPPRLPRPRPRPEQTPRP value_reported=0.303
item_sequence=RRIRARPPRLPRPRPRPIACPRP value_reported=0.0285
item_sequence=RRIRNRPPRLPRPRPRPFMTPRP value_reported=-0.429

====

Test system: Escherichia coli TOP10
Test summary: shrunken log2 fold change of peptide-encoding DNA abundance (4.5 h post-induction vs induction); higher = less antimicrobial activity (less host growth inhibition)
Test conditions: time post-induction: 4.5 h; library: site-saturation at positions 5, 18, 19, 20
Below: a set of entries, each annotated with reported shrunken log2 fold change.
Quantity measured: shrunken log2 fold change

item_sequence=RRIRYRPPRLPRPRPRPFRYPRP value_reported=-0.315
item_sequence=RRIRPRPPRLPRPRPRPNIYPRP value_reported=-0.69
item_sequence=RRIRHRPPRLPRPRPRPYKPPRP value_reported=-0.466
item_sequence=RRIRCRPPRLPRPRPRPVWGPRP value_reported=-0.0554

====

System: Escherichia coli TOP10;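 also: peptides expressed intracellularly from a pBAD plasmid library in pooled LB shake-flask culture, induced with 0.3% L-arabinose, DNA abundance read by NGS, three biological replicates, DESeq2 with apeglm shrinkage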
Test summary: shrunken log2 fold change of peptide-encoding DNA abundance (4.5 h post-induction vs induction); higher = less antimicrobial activity (less host growth inhibition)
Test conditions: time post-induction: 4.5 h; library: site-saturation at positions 5, 18, 19, 20
Below: a set of entries, each annotated with reported shrunken log2 fold change.
Quantity measured: shrunken log2 fold change

item_sequence=RRIRMRPPRLPRPRPRPHVVPRP value_reported=-0.0448
item_sequence=RRIRQRPPRLPRPRPRPVHEPRP value_reported=0.536
item_sequence=RRIRNRPPRLPRPRPRPPNAPRP value_reported=0.313
item_sequence=RRIRTRPPRLPRPRPRPSYYPRP value_reported=-0.786
